Origin of values: the supplement of paper PMC9732359

experimentNotes: protein stability index of a GFP-peptide fusion (yeast GPS) (PSI 1-4); higher = more stable; sorted into four equal gates, so the index is relative within each strain
measurementSetup: pdr5∆
recordedMetric: protein stability index
Answers are plain numbers.

KKRREYFPEGYNNKVGV [SIR2] : 3.56

Give protein stability index for each listed item.
1. PPPYVKFFTQSNLEKLP [MED7]
2. AGANDTSNNETNNGNDD [GRR1]
3. IMSTEAHVNKVTEETTK [SIR4]
4. QREAAAEYAQLLAKRLS [RPS6A]
5. KELEPWDLQLQEKESQI [SMC4]

Solution:
[2.29, 2.23, 2.89, 1.6, 3.22]

State the recorded protein stability index for every item in the following list.
1. NTCTISTSKFESQYPIV [SWP82]
2. LYYDEDINVESLTQSVC [PUP2]
3. QNSSKIVNVLSKCLNLI [SWI3]
4. DHGDGILLIDSEIARTY [RPN9]
5. RKHHKKGITEEVAKKRS [RPL24A]
6. ELRRPGVDNLRRMGILK [RPO31]
7. VLILLHAERDLALAETL [SRP68]
8. NPEPNKKNIQKAKSNQT [IRR1]

Solution:
1: 2.67; 2: 2.25; 3: 1.98; 4: 3.03; 5: 3.45; 6: 2.98; 7: 3.04; 8: 2.43

Fill in protein stability index for each of the 8 sequences listed.
1. GSVSEETELFEPGVLNT [ECM29]
2. VSDSEIIDLNLHSFTKQ [POP6]
3. DGTSTEKTFLHLPCTIE [RPN8]
4. ADNKEDVKKPFSFGTSQ [YLR335W/NUP2]
5. FPLCVHLVSNELEQLSS [RPL10]
6. NKLGNKRLTEDERIEKE [CDC53]
7. KALILAPTRELVQQIQK [PRP28]
8. RMHLAPASKQGYLITPP [SSN2]

Solution:
[3, 2.85, 1.78, 3.09, 2.71, 3.13, 2.82, 1.45]

Would you be so kind as to report protein stability index for each listed record?
1. ETVFNYRLMIKRLNFSF [GRR1]
2. GAHGNSDPVCLFVCNKD [POP3]
3. AHELQSEDVSRDHEKDT [YIL149C/MLP2]
4. YVLYAKIVVLSRTGPVF [RRP43]
5. QQAQAQAQAQAQAQAQA [GAL11]
6. DVFTINPHQKDQLIISS [YML103C/NUP188]

Solution:
1. 1.3
2. 3.37
3. 2.73
4. 1.15
5. 3.06
6. 2.19

* * *

experimentNotes: protein stability index of a GFP-peptide fusion (yeast GPS) (PSI 1-4); higher = more stable; sorted into four equal gates, so the index is relative within each strain
measurementSetup: pdr5∆
recordedMetric: protein stability index
Numbers only.

Solved cases (5 shown):
PGEFVTAIAHSIREQVH [SNF5] : 2.13
FEIVDREKNSLESGKET [SMC4] : 3.16
TDSDFAKYHAKLNKKLQ [SRP68] : 3.12
LQDELHKVSSQSTNLNR [YCS4] : 3.06
TDENTPSADGADKKDDS [ITC1] : 3.11

Please state, for each entry, its recorded protein stability index.
1. RKCQFRTPDSISVNSSS [POP1]
2. GNIFADLLPNSFAKLVP [SMC2]
3. QIIVTDGKLEPSTRSNF [YJL039C/NUP192]
4. DNSATSYYELETIIFDS [RRI1]
5. VKLIVMLCTLTGYQNND [YJL039C/NUP192]
6. ITHQGANSESGHYQAFI [UBP6]
7. HRASPADVSIKSILQEI [POP5]

Solution:
1: 2.52; 2: 2.86; 3: 3.13; 4: 3.17; 5: 1.25; 6: 2.95; 7: 3.27

I'm hoping you can list protein stability index for every sequence here, please.
1. WQYIVIDEAHRIKNEQS [ISW2]
2. GVVQMVTDNKTPEMNVT [TAF14]

Solution:
[1.64, 2.67]

Provide each entry's protein stability index from the list below.
1. NRRLFKKCIDFFEMLIS [RRI2]
2. TKEKVNGASVPINLHPS [RPL26A]
3. HDSSNGLFQVLHNFESV [NUT1]
4. ALFQPPNFDWDLCSSVL [ROX3]
5. IVDPTAEQLKISLSVHT [RRP46]

Solution:
[2.05, 2.73, 3.15, 3.29, 1.81]

Batch request: protein stability index per item, same order as input.
1. INNPVNLTIHFGGEKGK [FAS1]
2. NLATWYHSAGGRDKHAL [SSN3]
3. KLLAKELEEQESESERK [SMC2]

Solution:
2.8
3.54
3.23
